FYI, the data here is from PubChem BioAssay AID602144.

remaining activity for assorted compounds
Target: Phospholipase D1 (Homo sapiens) (UniProt Q13393)
Sequence (Q13393 whole entry, looked up): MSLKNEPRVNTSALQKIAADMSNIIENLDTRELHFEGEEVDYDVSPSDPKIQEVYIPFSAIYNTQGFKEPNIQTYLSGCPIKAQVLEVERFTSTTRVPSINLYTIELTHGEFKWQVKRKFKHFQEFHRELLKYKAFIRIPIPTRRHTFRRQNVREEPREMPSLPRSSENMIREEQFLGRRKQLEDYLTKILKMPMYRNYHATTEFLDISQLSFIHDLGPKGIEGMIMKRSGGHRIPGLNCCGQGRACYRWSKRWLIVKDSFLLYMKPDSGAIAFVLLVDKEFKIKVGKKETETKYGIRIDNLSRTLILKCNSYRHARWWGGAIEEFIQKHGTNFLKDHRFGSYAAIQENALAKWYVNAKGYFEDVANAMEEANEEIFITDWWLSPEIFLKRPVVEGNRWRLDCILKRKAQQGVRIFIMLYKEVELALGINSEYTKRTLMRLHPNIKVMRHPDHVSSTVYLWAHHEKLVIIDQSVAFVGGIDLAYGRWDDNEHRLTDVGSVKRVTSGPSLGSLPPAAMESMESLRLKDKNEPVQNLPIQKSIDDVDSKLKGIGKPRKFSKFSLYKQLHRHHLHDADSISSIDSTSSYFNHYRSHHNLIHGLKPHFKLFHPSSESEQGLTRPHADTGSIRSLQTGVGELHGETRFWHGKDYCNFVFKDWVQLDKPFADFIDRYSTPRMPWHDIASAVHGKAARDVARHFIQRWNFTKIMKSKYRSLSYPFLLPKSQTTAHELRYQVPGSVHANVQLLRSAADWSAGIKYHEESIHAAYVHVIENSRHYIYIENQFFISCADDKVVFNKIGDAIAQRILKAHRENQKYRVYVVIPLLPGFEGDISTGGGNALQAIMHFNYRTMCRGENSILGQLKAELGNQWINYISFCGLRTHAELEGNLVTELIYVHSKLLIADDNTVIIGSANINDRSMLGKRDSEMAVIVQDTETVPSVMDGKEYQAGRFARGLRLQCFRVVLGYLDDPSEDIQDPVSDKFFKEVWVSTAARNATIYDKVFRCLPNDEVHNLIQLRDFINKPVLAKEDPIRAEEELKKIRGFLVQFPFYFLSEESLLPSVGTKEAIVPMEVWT
Sequence (Q13393 whole entry, looked up): as above
Test: PLD1 inhibitors in cells, Calu-1 cells, single concentration (AID 602144);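 note: tested at 200 nM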
Conditions: cellular PLD1 activity, stronger effect = lower value
Measured metric: remaining activity (%)

>>> readout_number("C[C@@H](CN1CCC2(CCc3ccccc32)CC1)NC(=O)c1cnc2ccccc2c1")
129
>>> readout_number("C[C@@H](CN1CCC2(CCc3ccccc32)CC1)NC(=O)c1ccc2ccccc2c1")
91.4
>>> readout_number("C[C@@H](CN1CCC(c2nc3ccc(F)cc3[nH]2)CC1)NC(=O)[C@H]1CC1c1ccccc1 (stereo partly drawn)")
88
